Values compiled from patent US20240158517A1.

tested_target: T1, human CXCR5 (human, UniProt P32302 1-372)
T1 construct: whole, on cells; Always presented on cells; one entry is used for all cell lines; also called hCXCR5; C-X-C chemokine receptor type 5
T1 sequence (looked up): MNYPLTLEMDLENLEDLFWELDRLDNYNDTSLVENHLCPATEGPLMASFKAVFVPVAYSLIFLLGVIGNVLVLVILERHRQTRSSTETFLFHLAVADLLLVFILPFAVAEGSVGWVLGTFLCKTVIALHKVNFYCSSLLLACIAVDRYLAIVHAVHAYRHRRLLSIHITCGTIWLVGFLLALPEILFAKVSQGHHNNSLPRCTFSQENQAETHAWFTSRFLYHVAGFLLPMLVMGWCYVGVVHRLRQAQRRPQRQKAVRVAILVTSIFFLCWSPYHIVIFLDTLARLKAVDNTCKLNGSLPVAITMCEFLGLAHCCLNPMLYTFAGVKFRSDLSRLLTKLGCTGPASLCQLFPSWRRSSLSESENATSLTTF
run_description: flow cytometry on an adherent stable cell line expressing hCXCR5, MFI normalized on the benchmark MFI
observable: EC50

binder	measured_result
HFB2-4-hG1 (antibody, V domains shown, Mouse-human chimeric antibody, human IgG1 constant region; also called parental) VH: QVQLKESGPGLVAPSQSLSITCTVSGFSLTSYGVSWVRQPPGKGLEWLGVIWGDGSTNYHSGLISRLSISKDNSKSQVFLKLNSLQSDDTATYYCARVVYWGQGTLVTVSA VL: DIVMTQAAPSVPVTPGESISISCRSSKSLLHSNGKTYLYWFLQRPGQSPQLLLYRMSNLASGVPDRFSGSGSGTAFTLRISRVEAEDVGVYYCMQHLEYPYTFGGGTKLEIK	0.924 nM
